# IC50 per entry
Target of assay: hVR1 (Homo sapiens, UniProt Q8NER1)
Construct: expressed in transfected cells; host or cells: T-REx System cell line (Invitrogen Cat# R710-07), called 'human keratinocyte cell line' and 'HEK 293 cells'; vector pcDNA5/TO (Invitrogen Cat# V1033-20); expression induced with doxycycline
Sequence (Q8NER1 whole entry): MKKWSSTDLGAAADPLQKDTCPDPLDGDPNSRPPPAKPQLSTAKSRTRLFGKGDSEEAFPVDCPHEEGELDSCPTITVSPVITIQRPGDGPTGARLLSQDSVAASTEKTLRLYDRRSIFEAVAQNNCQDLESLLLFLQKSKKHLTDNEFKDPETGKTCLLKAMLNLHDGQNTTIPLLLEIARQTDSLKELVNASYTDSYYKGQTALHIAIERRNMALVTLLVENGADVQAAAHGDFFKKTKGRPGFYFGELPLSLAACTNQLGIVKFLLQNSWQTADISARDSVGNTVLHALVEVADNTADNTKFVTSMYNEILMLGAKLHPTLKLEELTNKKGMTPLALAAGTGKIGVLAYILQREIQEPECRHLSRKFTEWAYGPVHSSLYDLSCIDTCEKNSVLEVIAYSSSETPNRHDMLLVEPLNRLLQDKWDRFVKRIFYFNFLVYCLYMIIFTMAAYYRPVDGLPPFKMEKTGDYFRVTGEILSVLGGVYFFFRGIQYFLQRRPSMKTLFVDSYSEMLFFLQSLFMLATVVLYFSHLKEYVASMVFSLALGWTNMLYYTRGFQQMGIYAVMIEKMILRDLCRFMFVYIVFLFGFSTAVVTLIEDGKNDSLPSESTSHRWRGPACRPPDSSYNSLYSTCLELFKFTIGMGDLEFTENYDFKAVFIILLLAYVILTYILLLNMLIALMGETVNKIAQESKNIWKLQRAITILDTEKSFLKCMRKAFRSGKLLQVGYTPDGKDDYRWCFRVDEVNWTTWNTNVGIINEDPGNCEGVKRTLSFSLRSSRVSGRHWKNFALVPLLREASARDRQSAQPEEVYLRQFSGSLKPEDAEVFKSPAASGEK
Procedure summary: Calcium uptake assay (FLIPR), inhibition of agonist-induced calcium influx in cells expressing hVR1
Type: cell-based
Cond: agonist protons, low pH solution pH 5.7; cells expressing human VR1; 2 or 30 min pre-incubation; read-out: IC50 (nM) Low pH
Readout: IC50

{"Compound": "Cc1cc([C@@H](C)NC(=O)C2=Cc3ccccc3OC2)c(F)cc1NS(C)(=O)=O [Example 1]", "Target of assay": "hVR1 (Homo sapiens, UniProt Q8NER1)", "Measured value": "101 to 500 nM"}
{"Compound": "COC(C)(C)c1ccc2c(n1)CC[C@H](C(=O)N[C@H](C)c1cc(C)c(NS(C)(=O)=O)cc1F)C2 (single isomer, unassigned) [Example 15]", "Target of assay": "hVR1 (Homo sapiens, UniProt Q8NER1)", "Measured value": "< 100 nM"}
{"Compound": "COc1ccc2c(c1)CCC(C(=O)N[C@H](C)c1cc(C)c(NS(C)(=O)=O)cc1F)C2C (stereo partly shown) [Example 5]", "Target of assay": "hVR1 (Homo sapiens, UniProt Q8NER1)", "Measured value": "> 1000 nM"}
{"Compound": "Cc1cc([C@@H](C)NC(=O)C2CCc3ccccc3O2)c(F)cc1NS(C)(=O)=O (stereo partly shown) [Example 2]", "Target of assay": "hVR1 (Homo sapiens, UniProt Q8NER1)", "Measured value": "> 1000 nM"}

* * *

Target of assay: hVR1 (Homo sapiens)
Construct: expressed in transfected cells; host or cells: T-REx System cell line (Invitrogen Cat# R710-07), called 'human keratinocyte cell line' and 'HEK 293 cells'; vector pcDNA5/TO (Invitrogen Cat# V1033-20); expression induced with doxycycline
Procedure summary: Calcium uptake assay (FLIPR), inhibition of agonist-induced calcium influx in cells expressing hVR1
Assay type: cell-based
Cond: IC50 (nM) Capsaicin, agonist capsaicin at 10 nM or its EC50; cells expressing human VR1; 2 or 30 min pre-incubation
# IC50 per entry

{"Compound": "Cc1cc([C@@H](C)NC(=O)C2=Cc3cc(Cl)ccc3OC2)c(F)cc1NS(C)(=O)=O", "IC50": "< 100 nM"}
{"Compound": "C[C@@H](NC(=O)[C@H]1COc2cc(C(F)(F)F)ccc2O1)c1ccc(NS(C)(=O)=O)c(Cl)c1", "IC50": "< 100 nM"}
{"Compound": "Cc1cc([C@@H](C)NC(=O)[C@@H]2COc3cc(C(F)(F)F)ccc3O2)c(F)cc1NS(C)(=O)=O", "IC50": "101 to 500 nM"}
{"Compound": "Cc1cc([C@@H](C)NC(=O)C2CCc3nc(C(F)(F)F)ccc3C2)c(F)cc1NS(C)(=O)=O (stereo partly drawn)", "IC50": "< 100 nM"}
{"Compound": "Cc1cc([C@@H](C)NC(=O)C2CN(C)c3cc(C(F)(F)F)ccc3O2)c(F)cc1NS(C)(=O)=O (stereo partly drawn)", "IC50": "< 100 nM"}
{"Compound": "Cc1cc([C@@H](C)NC(=O)[C@@H]2COc3ccc(C(F)(F)F)cc3O2)c(F)cc1NS(C)(=O)=O", "IC50": "101 to 500 nM"}
{"Compound": "C[C@@H](NC(=O)[C@H]1COc2cc(C(F)(F)F)ccc2O1)c1ccc(NS(C)(=O)=O)c(F)c1", "IC50": "< 100 nM"}
{"Compound": "Cc1cc([C@@H](C)NC(=O)C2COc3nc(C(F)(F)F)ccc3O2)c(F)cc1NS(C)(=O)=O (stereo partly drawn)", "IC50": "101 to 500 nM"}
{"Compound": "Cc1cc([C@@H](C)NC(=O)[C@H]2CCc3nc(C4(C)OCCO4)ccc3C2)c(F)cc1NS(C)(=O)=O", "IC50": "101 to 500 nM"}
{"Compound": "Cc1cc([C@@H](C)NC(=O)C2=Cc3ccccc3OC2)c(F)cc1NS(C)(=O)=O", "IC50": "< 100 nM"}
{"Compound": "COC(C)(C)c1ccc2c(n1)CC[C@H](C(=O)N[C@H](C)c1cc(C)c(NS(C)(=O)=O)cc1F)C2 (single isomer, unassigned)", "IC50": "< 100 nM"}
{"Compound": "COC(C)(C)c1ccc2c(n1)CC[C@@H](C(=O)N[C@H](C)c1cc(C)c(NS(C)(=O)=O)cc1F)C2 (single isomer, unassigned)", "IC50": "101 to 500 nM"}

* * *

Target of assay: hVR1 (Homo sapiens, UniProt Q8NER1)
Construct: expressed in transfected cells; host or cells: T-REx System cell line (Invitrogen Cat# R710-07), called 'human keratinocyte cell line' and 'HEK 293 cells'; vector pcDNA5/TO (Invitrogen Cat# V1033-20); expression induced with doxycycline
Procedure summary: Calcium uptake assay (FLIPR), inhibition of agonist-induced calcium influx in cells expressing hVR1
Assay type: cell-based
Cond: read-out: IC50 (nM) Capsaicin; agonist capsaicin at 10 nM or its EC50; cells expressing human VR1; 2 or 30 min pre-incubation

{"Smiles repr": "Cc1cc([C@@H](C)NC(=O)[C@H]2CCc3nc(C(C)(C)C(F)(F)F)ccc3C2)c(F)cc1NS(C)(=O)=O", "IC50": "< 100 nM"}

Values were extracted from patent US8153651B2.
